growth listing for selected molecules.
test system: E. coli TESEC Mtb Alr; test: growth (OD600 after 10 h); higher = more growth (less inhibition); conditions: arabinose 100 nM; compound 0.1 mM; raw OD600 reference: median of DMSO wells 0.413, cell-free background 0.052
Structures can show the parent of a compound that is named as a salt.
Number only, no unit.

molecule: COc1ccccc1N1CCN(CC(O)COc2cccc3ccccc23)CC1 (stereo not drawn) [Naftopidil dihydrochloride]
reportedMetric: growth
reportedResult: 0.408
//
molecule: Cc1cccc(C)c1NC(=O)C(C)N (stereo not drawn) [Tocainide hydrochloride]
reportedMetric: growth
reportedResult: 0.4

Q: Report growth for CCc1ccc(CCOc2ccc(CC3SC(=O)NC3=O)cc2)nc1 (stereo not drawn) please.
Ans: 0.426

Q: Request the reported growth associated with CC(C)(C)NC[C@H](O)COc1ccccc1C1CCCC1 [Penbutolol sulfate]
Ans: 0.412

Q: Form field: reported growth of CCc1c(C)[nH]c2c1C(=O)C(CN1CCOCC1)CC2 (stereo not drawn) [Molindone hydrochloride]
Ans: 0.409

Q: GET /values?readout=growth&item= CN1CCN(CC(=O)N2c3ccccc3C(=O)Nc3cccnc32)CC1 [Pirenzepine dihydrochloride]
Ans: 0.415

Q: What growth value was documented for this molecule, COC(=O)C1=C(C)NC(C)=C(C(=O)OC2CCCN(Cc3ccccc3)C2)C1c1cccc([N+](=O)[O-])c1 (stereo not drawn) [Benidipine hydrochloride] ?
Ans: 0.353

Q: # get_value(readout='growth', item= CC(C)COCC(CN(Cc1ccccc1)c1ccccc1)N1CCCC1 (stereo not drawn) [Bepridil hydrochloride] )
Ans: 0.304

---

system: E. coli TESEC Mtb Alr; assay: growth (OD600 after 10 h); higher = more growth (less inhibition); conditions: arabinose 10000000 nM; compound 0.1 mM; raw OD600 reference: median of DMSO wells 0.146, cell-free background 0.041
Where a name gives a salt, the structure may show the parent alone.
reportedMetric: growth
Give your answer as a number; write no unit.

Worked cases, growth given:
compound: C[C@@H]1C[C@H]2[C@@H]3CCC4=CC(=O)C=C[C@]4(C)[C@@]3(Cl)[C@@H](O)C[C@]2(C)[C@@]1(OC(=O)c1ccco1)C(=O)CCl [Mometasone furoate]
growth: 0.152

compound: Nc1ccn([C@@H]2O[C@H](CO)[C@@H](O)[C@@H]2O)c(=O)n1
growth: 0.171

compound: COCCc1ccc(OCC(O)CNC(C)C)cc1 (racemic) [Metoprolol-(+,-) (+)-tartrate salt]
growth: 0.141

Consider the record given below.
Q: Would you kindly share the measured growth for CNCCc1ccccn1 [Betahistine mesylate] ?
Ans: 0.164

---

growth values by entry
test system: E. coli TESEC Mtb DapB; assay: growth (OD600 after 10 h); higher = more growth (less inhibition); settings: arabinose induction (level): Low; compound 0.1 mM; raw OD600 reference: median of DMSO wells 0.227, cell-free background 0.041
Where a name gives a salt, the structure may show the parent alone.
Reply briefly: the number, and no unit.

compound: O=C(Oc1cccc2cccnc12)c1ccccc1
growth: 0.201
//
compound: COc1ccc2c(c1)C(=O)N(CCc1ccc(S(=O)(=O)NC(=O)NC3CCCCC3)cc1)C(=O)C2(C)C
growth: 0.173

Q: Look up growth for this compound: COc1cc2nc(N3CCN(C(=O)C4COc5ccccc5O4)CC3)nc(N)c2cc1OC (centres undefined) [Doxazosin mesylate]
Ans: 0.208

Q: Fill in the blank: the reported growth of CC(C)/N=c1\cc2n(-c3ccc(Cl)cc3)c3ccccc3nc-2cc1Nc1ccc(Cl)cc1 is ____.
Ans: 0.261

---

tested on: E. coli TESEC Mtb Asd; assay: growth (OD600 after 10 h); higher = more growth (less inhibition); conditions: arabinose induction (level): High; compound 0.1 mM; raw OD600 reference: median of DMSO wells 0.331, cell-free background 0.041
Where a name gives a salt, the structure may show the parent alone.
Criterion: growth meeting or surpassing 0.3. Met: true. Not met: false.

molecule: COc1cc2nc(N3CCN(C(=O)C4CCCO4)CC3)nc(N)c2cc1OC (stereo not given) [Terazosin hydrochloride]
classAssignment: false

Q: Check the entry NCCC[C@H](N)CC(=O)N[C@H]1CNC(=O)[C@H]([C@H]2C[C@H](O)NC(N)=N2)NC(=O)/C(=C/NC(N)=O)NC(=O)[C@H](CO)NC(=O)[C@H](CO)NC1=O [Viomycin sulfate] : does growth equal or exceed 0.3?
Ans: false

Q: Please check the record Nc1nc2ccc(OC(F)(F)F)cc2s1 [Riluzole hydrochloride] and state if its growth is at or above 0.3.
Ans: true

---

system: E. coli TESEC Mtb Alr; assay: growth (OD600 after 10 h); higher = more growth (less inhibition); conditions: arabinose 10000 nM; compound 0.1 mM; raw OD600 reference: median of DMSO wells 0.264, cell-free background 0.041
Where a name gives a salt, the structure may show the parent alone.
reportedMetric: growth

compound: CCC(=O)O[C@]1(C(=O)SCF)[C@H](C)C[C@H]2[C@@H]3C[C@H](F)C4=CC(=O)C=C[C@]4(C)[C@@]3(F)[C@@H](O)C[C@@]21C [Fluticasone propionate]
reportedResult: 0.274

compound: C[C@@H]1NC(=O)NC1=O [Methylhydantoin-5-(L)]
reportedResult: 0.274

compound: CCCC(=O)Nc1ccc(OCC(O)CNC(C)C)c(C(C)=O)c1 (stereo not drawn) [Acebutolol hydrochloride]
reportedResult: 0.257

compound: Cc1ccc2c(c1)c1c3n2CCNC3CCC1 (stereo not drawn) [Pirlindole mesylate]
reportedResult: 0.262

compound: CC(=O)N[C@@H](CC(C)C)C(=O)O [N-Acetyl-L-leucine]
reportedResult: 0.259

compound: CC(=O)N(O)CCCCCNC(=O)CCC(=O)N(O)CCCCCNC(=O)CCC(=O)N(O)CCCCCN [Deferoxamine mesylate]
reportedResult: 0.0561

compound: CN(C)C(=N)NC(=N)N [Metformin hydrochloride]
reportedResult: 0.258

compound: CCOC(=O)n1ccn(C)c1=S [Carbimazole]
reportedResult: 0.27

compound: Clc1cnccn1 [2-Chloropyrazine]
reportedResult: 0.0408

compound: CC(C)NCC(O)c1cc(O)cc(O)c1 (stereo not drawn) [Metaproterenol sulfate, orciprenaline sulfate]
reportedResult: 0.268

Q: Param item = CCOC(=O)OC(C)OC1=C(C(=O)Nc2ccccn2)N(C)S(=O)(=O)c2ccccc21 (stereo not drawn) [Ampiroxicam] ; retrieve measured growth.
Ans: 0.255

Q: Recorded growth of CCn1cc(C(=O)O)c(=O)c2cnc(N3CCNCC3)nc21 [Pipemidic acid] , please.
Ans: 0.063

Q: Sample COc1ccc2cc([C@@H](C)C(=O)O)ccc2c1 [(R) -Naproxen sodium salt] — what was its growth?
Ans: 0.275

Q: Field request: growth | item: CNCCC=C1c2ccccc2C=Cc2ccccc21 [Norcyclobenzaprine]
Ans: 0.254

Q: Recorded growth of NC(=O)NC1NC(=O)NC1=O (stereo not drawn) [Allantoin] , please.
Ans: 0.258

---

test system: E. coli TESEC Mtb Alr; assay: growth (OD600 after 10 h); higher = more growth (less inhibition); conditions: arabinose 10000000 nM; compound 0.1 mM; raw OD600 reference: median of DMSO wells […], cell-free background 0.052
Counter-ions that a name gives are not always drawn.
Classification field: enter label 1 for growth values not below 0.3, label 0 for values below it.

compound: COc1ccc(CCN(C)CCCC(C#N)(c2ccc(OC)c(OC)c2)C(C)C)cc1OC (stereo not given) [Verapamil hydrochloride]
classAssignment: label 0
--
compound: CC1=Nc2ccc(Cl)cc2S(=O)(=O)N1 [Diazoxide]
classAssignment: label 1
--
compound: CC(C)(C)NC[C@H](O)COc1nsnc1N1CCOCC1 [Timolol maleate salt]
classAssignment: label 1

Q: Does the reported growth for COc1ccc2[nH]c([S+]([O-])Cc3ncc(C)c(OC)c3C)nc2n1 (stereo not given) fall at or above the 0.3 mark?
Ans: label 0

Q: In plain terms: is recorded growth at least 0.3 for O=C(Oc1cccc2cccnc12)c1ccccc1 ?
Ans: label 0

---

tested on: E. coli TESEC Mtb DapB; experiment: growth (OD600 after 10 h); higher = more growth (less inhibition); conditions: arabinose induction (level): High; compound 0.1 mM; raw OD600 reference: median of DMSO wells […], cell-free background 0.041
Where a name gives a salt, the structure may show the parent alone.
reportedMetric: growth
// response body must contain only the number

# example entries with known answers
molecule: CN[C@@H]1[C@H](O[C@H]2[C@H](O[C@H]3[C@H](O)[C@@H](O)[C@H](NC(=N)N)[C@@H](O)[C@@H]3NC(=N)N)O[C@@H](C)[C@]2(O)CO)O[C@@H](CO)[C@H](O)[C@H]1O [Dihydrostreptomycin sulfate]
studyTarget: E. coli TESEC Mtb DapB
reportedResult: 0.0489
//
molecule: CCOC(=O)C1=C(C)NC(C)=C(C(=O)OC)C1c1cccc([N+](=O)[O-])c1 (stereo not drawn) [Nitrendipine]
studyTarget: E. coli TESEC Mtb DapB
reportedResult: 0.217

Now turn to the next molecule.
Q: Fill in: growth of CCCN(CCC)S(=O)(=O)c1ccc(C(=O)O)cc1 [Probenecid] is ___
Ans: 0.232
